Test system: telomere length in DC patient iPSCs
test-summary: telomere length / telomere elongation in DC patient iPSCs
Type: cell-based, human
test-parameters: Homo sapiens, iPSC; patient iPSCs; concentration class at which activity is seen; read-out: iPSC-based Telomere length
property-label: minimal effective concentration

Please review the entries below; each comes with its answer.
molecule: O=C(O)c1cc(Cl)ccc1Nc1c(S(=O)(=O)N2CCSCC2)cnc2c(Br)cc(Cl)cc12 [Compound 422A]
minimal effective concentration: < 0.001 µM

molecule: O=C(O)c1cc(Cl)ccc1Nc1c(C2=CCSCC2)cnc2ccc(Cl)cc12 [Compound 342A]
minimal effective concentration: < 0.001 µM

molecule: Cc1cc2ncc(S(=O)(=O)N3CCSCC3)c(Nc3ccc(Cl)cc3C(=O)O)c2cc1Cl [Compound 411A]
minimal effective concentration: < 0.001 µM

molecule: O=C(O)c1cc(Cl)ccc1Nc1c(S(=O)(=O)N2CCSCC2)cnc2c(F)cc(Cl)cc12 [Compound 421A]
minimal effective concentration: < 0.001 µM

molecule: O=C(O)c1cc(Cl)ccc1Nc1c(S(=O)(=O)N2CCSCC2)cnc2cc(Cl)c(Cl)cc12 [Compound 414A]
minimal effective concentration: < 0.001 µM

molecule: CN1CCN(c2cnc3ccc(Cl)cc3c2Nc2ccc(Cl)cc2C(=O)O)CC1 [Compound 361A]
minimal effective concentration: < 0.001 µM

minimal effective concentration measured on O=C(O)c1cc(Cl)ccc1Nc1c(C2CCC(=NO)CC2)cnc2ccc(Cl)cc12 (centres unmarked) [Compound 396A] = < 0.001 µM

// O=C(O)c1cc(Cl)ccc1Nc1c(-c2ccncc2)cnc2ccc(Cl)cc12 [Compound 391A] : minimal effective concentration value = < 0.001 µM
